# Tested on: HSSY-II complex spheroid growth, percent test/control
# TEST_NAME: Anticancer human tumor HSSY-II cell line growth inhibition [Asc];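 note: spheroids exposed to drug for 7 days before reading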
# CONDITION_SET: second compound 3 µM; first compound 0.1 µM; stronger effect = lower value
# viability, T/C per record follows
Give your result in % as a bare value.

Record excerpt, results attached:
Measured viability, T/C for this entry O=C(c1cc(Cc2n[nH]c(=O)c3ccccc23)ccc1F)N1CCN(C(=O)C2CC2)CC1 + CCN1C(C(=O)NC23CCC(C(=O)O)(CC2)CC3)C(c2cccc(Cl)c2F)C2(C(=O)Nc3cc(Cl)ccc32)C12CCCCC2 on HSSY-II complex spheroid growth, percent test/control: 2.79

Measured viability, T/C for this entry C=CC(=O)N1CCN(c2nc(=O)n(-c3c(C)ccnc3C(C)C)c3nc(-c4c(O)cccc4F)c(F)cc23)C(C)C1 (stereo not given) + CCN1C(C(=O)NC23CCC(C(=O)O)(CC2)CC3)C(c2cccc(Cl)c2F)C2(C(=O)Nc3cc(Cl)ccc32)C12CCCCC2 on HSSY-II complex spheroid growth, percent test/control: 2.5

Measured viability, T/C for this entry O=C(c1ccc(F)c(F)c1Nc1ccc(I)cc1F)N1CC(O)([C@@H]2CCCCN2)C1 + CCN1C(C(=O)NC23CCC(C(=O)O)(CC2)CC3)C(c2cccc(Cl)c2F)C2(C(=O)Nc3cc(Cl)ccc32)C12CCCCC2 on HSSY-II complex spheroid growth, percent test/control: 2.02

Measured viability, T/C for this entry CNC(C)C(=O)NC1CN(S(=O)(=O)c2cccc(S(=O)(=O)N3CCC4CCC(C(=O)NC(c5ccccc5)c5ccccc5)N4C(=O)C(NC(=O)C(C)NC)C3)c2)CCC2CCC(C(=O)NC(c3ccccc3)c3ccccc3)N2C1=O (stereo not given) + CCN1C(C(=O)NC23CCC(C(=O)O)(CC2)CC3)C(c2cccc(Cl)c2F)C2(C(=O)Nc3cc(Cl)ccc32)C12CCCCC2 on HSSY-II complex spheroid growth, percent test/control: 0.47

Continuing:
Measured viability, T/C for this entry CCN1CCN(Cc2ccc(Nc3ncc(F)c(-c4cc(F)c5nc(C)n(C(C)C)c5c4)n3)nc2)CC1 + CCN1C(C(=O)NC23CCC(C(=O)O)(CC2)CC3)C(c2cccc(Cl)c2F)C2(C(=O)Nc3cc(Cl)ccc32)C12CCCCC2 on HSSY-II complex spheroid growth, percent test/control: 2.31

* * *

# Test system: HSSY-II complex spheroid growth, percent test/control
# TEST_NAME: Anticancer human tumor HSSY-II cell line growth inhibition [Asc];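 note: spheroids exposed to drug for 7 days before reading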
# CONDITION_SET: second compound 0.316 µM; first compound 0.00316 µM; stronger effect = lower value
Label condition met when viability, T/C is strictly below 90%; at or above that, label condition not met.

Some solved entries appear below for comparison.
Exercise: Given the entry NC1CCC(NC2CC2c2ccccc2)CC1 (stereo unspecified) + Cc1c(S(C)(=O)=O)c(-c2cc(F)cc(N3CCN(c4ccc(NS(=O)(=O)c5ccc(NC(CCN6CCC(C(=O)OCCCP(=O)(O)O)CC6)CSc6ccccc6)c(S(=O)(=O)C(F)(F)F)c5)cc4)CC3)c2)c(-c2ccc(Cl)cc2)n1C(C)C , would its reported viability, T/C be below 90%?
Key: condition met

Exercise: Given the entry NC1CCC(NC2CC2c2ccccc2)CC1 (stereo unspecified) + CNC(C)C(=O)NC1CN(S(=O)(=O)c2cccc(S(=O)(=O)N3CCC4CCC(C(=O)NC(c5ccccc5)c5ccccc5)N4C(=O)C(NC(=O)C(C)NC)C3)c2)CCC2CCC(C(=O)NC(c3ccccc3)c3ccccc3)N2C1=O , would its reported viability, T/C be below 90%?
Key: condition met

Exercise: Given the entry Cn1ncnc1[C@H]1c2n[nH]c(=O)c3cc(F)cc(c23)N[C@@H]1c1ccc(F)cc1 + CNC(C)C(=O)NC1CN(S(=O)(=O)c2cccc(S(=O)(=O)N3CCC4CCC(C(=O)NC(c5ccccc5)c5ccccc5)N4C(=O)C(NC(=O)C(C)NC)C3)c2)CCC2CCC(C(=O)NC(c3ccccc3)c3ccccc3)N2C1=O , would its reported viability, T/C be below 90%?
Key: condition met

Exercise: Given the entry COc1c(OCCCN2CCOCC2)ccc2c3n(c(=NC(=O)c4cnc(N)nc4)nc12)CCN3 + CNC(C)C(=O)NC1CN(S(=O)(=O)c2cccc(S(=O)(=O)N3CCC4CCC(C(=O)NC(c5ccccc5)c5ccccc5)N4C(=O)C(NC(=O)C(C)NC)C3)c2)CCC2CCC(C(=O)NC(c3ccccc3)c3ccccc3)N2C1=O , would its reported viability, T/C be below 90%?
Key: condition met

Exercise: Given the entry Cn1ncnc1[C@H]1c2n[nH]c(=O)c3cc(F)cc(c23)N[C@@H]1c1ccc(F)cc1 + Cc1c(S(C)(=O)=O)c(-c2cc(F)cc(N3CCN(c4ccc(NS(=O)(=O)c5ccc(NC(CCN6CCC(C(=O)OCCCP(=O)(O)O)CC6)CSc6ccccc6)c(S(=O)(=O)C(F)(F)F)c5)cc4)CC3)c2)c(-c2ccc(Cl)cc2)n1C(C)C , would its reported viability, T/C be below 90%?
Key: condition met

Exercise: Given the entry COc1c(OCCCN2CCOCC2)ccc2c3n(c(=NC(=O)c4cnc(N)nc4)nc12)CCN3 + Cc1c(S(C)(=O)=O)c(-c2cc(F)cc(N3CCN(c4ccc(NS(=O)(=O)c5ccc(NC(CCN6CCC(C(=O)OCCCP(=O)(O)O)CC6)CSc6ccccc6)c(S(=O)(=O)C(F)(F)F)c5)cc4)CC3)c2)c(-c2ccc(Cl)cc2)n1C(C)C , would its reported viability, T/C be below 90%?
Key: condition met

Continuing:
Exercise: Given the entry O=C(c1ccc(F)c(F)c1Nc1ccc(I)cc1F)N1CC(O)([C@@H]2CCCCN2)C1 + CNC(C)C(=O)NC1CN(S(=O)(=O)c2cccc(S(=O)(=O)N3CCC4CCC(C(=O)NC(c5ccccc5)c5ccccc5)N4C(=O)C(NC(=O)C(C)NC)C3)c2)CCC2CCC(C(=O)NC(c3ccccc3)c3ccccc3)N2C1=O , would its reported viability, T/C be below 90%?
Key: condition not met

Exercise: Given the entry O=C(c1ccc(F)c(F)c1Nc1ccc(I)cc1F)N1CC(O)([C@@H]2CCCCN2)C1 + Cc1c(S(C)(=O)=O)c(-c2cc(F)cc(N3CCN(c4ccc(NS(=O)(=O)c5ccc(NC(CCN6CCC(C(=O)OCCCP(=O)(O)O)CC6)CSc6ccccc6)c(S(=O)(=O)C(F)(F)F)c5)cc4)CC3)c2)c(-c2ccc(Cl)cc2)n1C(C)C , would its reported viability, T/C be below 90%?
Key: condition not met

Exercise: Given the entry CCN1CCN(Cc2ccc(Nc3ncc(F)c(-c4cc(F)c5nc(C)n(C(C)C)c5c4)n3)nc2)CC1 + CNC(C)C(=O)NC1CN(S(=O)(=O)c2cccc(S(=O)(=O)N3CCC4CCC(C(=O)NC(c5ccccc5)c5ccccc5)N4C(=O)C(NC(=O)C(C)NC)C3)c2)CCC2CCC(C(=O)NC(c3ccccc3)c3ccccc3)N2C1=O , would its reported viability, T/C be below 90%?
Key: condition met

Exercise: Given the entry CNC(C)C(=O)NC1CN(S(=O)(=O)c2cccc(S(=O)(=O)N3CCC4CCC(C(=O)NC(c5ccccc5)c5ccccc5)N4C(=O)C(NC(=O)C(C)NC)C3)c2)CCC2CCC(C(=O)NC(c3ccccc3)c3ccccc3)N2C1=O (stereo unspecified) + Cc1c(S(C)(=O)=O)c(-c2cc(F)cc(N3CCN(c4ccc(NS(=O)(=O)c5ccc(NC(CCN6CCC(C(=O)OCCCP(=O)(O)O)CC6)CSc6ccccc6)c(S(=O)(=O)C(F)(F)F)c5)cc4)CC3)c2)c(-c2ccc(Cl)cc2)n1C(C)C , would its reported viability, T/C be below 90%?
Key: condition not met

* * *

# viability, T/C per record follows
# System: HSSY-II complex spheroid growth, percent test/control
# TEST_NAME: Anticancer human tumor HSSY-II cell line growth inhibition [Asc];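 note: spheroids exposed to drug for 7 days before reading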
# CONDITION_SET: second compound 1 µM; first compound 0.316 µM; stronger effect = lower value
# Excerpt: Multicellular complex tumor spheroid response to apoptosis pathway targeting inhibitors Alrizomadlin, Pelcitoclax, and Dasminapant in combination with a variety of drugs and investigational agents in selected tumor cell lines […] Compounds. […] If the clinical Cmax for an agent had not been determined, the highest concentration tested was 10 microM. […]
Give your result in % as a bare value.

Measured viability, T/C for this entry C#Cc1c(F)ccc2cc(O)cc(-c3ncc4c(N5CC6CCC(C5)N6)nc(OCC56CCCN5CC(F)C6)nc4c3F)c12 (stereo unspecified) + CNC(C)C(=O)NC1CN(S(=O)(=O)c2cccc(S(=O)(=O)N3CCC4CCC(C(=O)NC(c5ccccc5)c5ccccc5)N4C(=O)C(NC(=O)C(C)NC)C3)c2)CCC2CCC(C(=O)NC(c3ccccc3)c3ccccc3)N2C1=O on HSSY-II complex spheroid growth, percent test/control: 96.2

Continuing:
Measured viability, T/C for this entry C=CC(=O)N1CCN(c2nc(=O)n(-c3c(C)ccnc3C(C)C)c3nc(-c4c(O)cccc4F)c(F)cc23)C(C)C1 (stereo unspecified) + Cc1c(S(C)(=O)=O)c(-c2cc(F)cc(N3CCN(c4ccc(NS(=O)(=O)c5ccc(NC(CCN6CCC(C(=O)OCCCP(=O)(O)O)CC6)CSc6ccccc6)c(S(=O)(=O)C(F)(F)F)c5)cc4)CC3)c2)c(-c2ccc(Cl)cc2)n1C(C)C on HSSY-II complex spheroid growth, percent test/control: 96.4

Measured viability, T/C for this entry C=C(F)C(=O)N1CCN(c2nc(OCC3CCCN3C)nc3c2CCN(c2cccc4cccc(Cl)c24)C3)CC1CC#N (stereo unspecified) + Cc1c(S(C)(=O)=O)c(-c2cc(F)cc(N3CCN(c4ccc(NS(=O)(=O)c5ccc(NC(CCN6CCC(C(=O)OCCCP(=O)(O)O)CC6)CSc6ccccc6)c(S(=O)(=O)C(F)(F)F)c5)cc4)CC3)c2)c(-c2ccc(Cl)cc2)n1C(C)C on HSSY-II complex spheroid growth, percent test/control: 95.6

This collection of values is drawn from PubChem BioAssay AID1963444.
